tested on: IGROV1 complex spheroids (HUVEC, MSC), viability % test/control; assay: Anticancer human tumor IGROV1 cell line growth inhibition [GQUAD]; conditions: second compound 1 µM; first compound 0.1 µM; active means viability on the fitted dose curve at most 10% of control; inactive means the rest;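 further: spheroids exposed to compounds for 7 days before readout; 100% = DMSO vehicle control viability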
Possible outcomes: 1 for active, 0 for inactive

[
  {
    "molecule": "COc1cc(C2c3cc4c(cc3C(OC3OC5COC(C)OC5C(O)C3O)C3COC(=O)C23)OCO4)cc(OC)c1O (centres undefined) + Cc1cnc(CNC(=O)c2c(=O)c3ccc(N4CCCN(C)CC4)nc3n3c2sc2ccccc23)cn1",
    "class.assignment": 0
  },
  {
    "molecule": "C=CCn1c(=O)c2cnc(Nc3ccc(N4CCN(C)CC4)cc3)nc2n1-c1cccc(C(C)(C)O)n1 + Cc1cnc(CNC(=O)c2c(=O)c3ccc(N4CCCN(C)CC4)nc3n3c2sc2ccccc23)cn1",
    "class.assignment": 1
  },
  {
    "molecule": "CC(=O)O[C@H]1C(=O)[C@@]2(C)[C@H]([C@H](OC(=O)c3ccccc3)[C@]3(O)C[C@H](OC(=O)[C@H](O)[C@@H](NC(=O)c4ccccc4)c4ccccc4)C(C)=C1C3(C)C)[C@]1(OC(C)=O)CO[C@@H]1C[C@@H]2O + CN(C)c1ccc(Nc2c3ccc(NC(=O)CCN4CCCC4)cc3nc3cc(NC(=O)CCN4CCCC4)ccc23)cc1",
    "class.assignment": 1
  },
  {
    "molecule": "C=CC(=O)N1CCN(c2nc(=O)n(-c3c(C)ccnc3C(C)C)c3nc(-c4c(O)cccc4F)c(F)cc23)C(C)C1 (centres undefined) + Cc1[nH]c2ccc(F)cc2c1-c1nc2c3cccnc3c3ncccc3c2[nH]1",
    "class.assignment": 1
  }
]

* * *

test system: IGROV1 complex spheroids (HUVEC, MSC), viability % test/control; test: Anticancer human tumor IGROV1 cell line growth inhibition [GQUAD]; settings: second compound 10 µM; first compound 0.1 µM; active compounds read low;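 further: spheroids exposed to compounds for 7 days before readout; 100% = DMSO vehicle control viability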
Exam item: assign YES to entries whose viability, T/C is below 4% and NO to entries at or above 4%. Note that a value of exactly 4% receives NO.

[
  {
    "compound": "COc1ncnc(C2CC2)c1-c1ncc2cnn(Cc3ccc(-c4nc(C(F)(F)F)cn4C(C)C)cc3)c2n1 + CN(C)c1ccc(Nc2c3ccc(NC(=O)CCN4CCCC4)cc3nc3cc(NC(=O)CCN4CCCC4)ccc23)cc1",
    "class.assignment": "NO"
  },
  {
    "compound": "CC1COCCN1c1cc(C2(O)CC3CCC(C2)O3)c2cnn(-c3ccn[nH]3)c2n1 (stereo not given) + Cc1[nH]c2ccc(F)cc2c1-c1nc2c3cccnc3c3ncccc3c2[nH]1",
    "class.assignment": "YES"
  },
  {
    "compound": "C=CC(=O)N1CCN(c2nc(=O)n(-c3c(C)ccnc3C(C)C)c3nc(-c4c(O)cccc4F)c(F)cc23)C(C)C1 (stereo not given) + Cc1[nH]c2ccc(F)cc2c1-c1nc2c3cccnc3c3ncccc3c2[nH]1",
    "class.assignment": "NO"
  },
  {
    "compound": "CC(C)(O)C1CCC(Nc2ccc3ncc(-c4cccc(C(F)(F)F)c4)n3n2)CC1 (stereo not given) + Cc1[nH]c2ccc(F)cc2c1-c1nc2c3cccnc3c3ncccc3c2[nH]1",
    "class.assignment": "YES"
  },
  {
    "compound": "CC1COCCN1c1cc(C2(S(C)(=N)=O)CC2)nc(-c2ccnc3[nH]ccc23)n1 (stereo not given) + Cc1cnc(CNC(=O)c2c(=O)c3ccc(N4CCCN(C)CC4)nc3n3c2sc2ccccc23)cn1",
    "class.assignment": "NO"
  }
]
